Documented MBC across a set of molecules
- Test system: Staphylococcus aureus
- Method summary: Bactericidal activity against Staphylococcus aureus MTCC 96 after 24 hrs
- Format: functional
- Condition notes: MTCC 96, 24 h
Report the value in µg/mL with no unit label.

These recorded examples may help you get a feel for the data.
> print(dat)
                                   molecule        measured.target  measured.property  assay.value
1  Cc1ccc(-n2cc(CN3C(=O)C4(C(C#N)=C(N)Oc5c4c(=O)n(C)c(=O)n5C)c4ccccc43)nn2)cc1 (configuration not stated)  Staphylococcus aureus                MBC          256
2  Cn1c2c(c(=O)n(C)c1=O)C1(C(=O)N(Cc3cn(-c4ccc(Br)cc4)nn3)c3ccccc31)C(C#N)=C(N)O2 (configuration not stated)  Staphylococcus aureus                MBC           64
3  CC1(C)CC(=O)C2=C(C1)OC(N)=C(C#N)C21C(=O)N(Cc2cn(-c3ccc([N+](=O)[O-])cc3)nn2)c2ccccc21 (configuration not stated)  Staphylococcus aureus                MBC          128
4  COc1ccc(-n2cc(CN3C(=O)C4(C(C#N)=C(N)OC5=C4C(=O)CC(C)(C)C5)c4ccccc43)nn2)cc1 (configuration not stated)  Staphylococcus aureus                MBC          256
5  COc1ccc(-n2cc(CN3C(=O)C4(C(C#N)=C(N)Oc5c4c(=O)n(C)c(=O)n5C)c4ccccc43)nn2)cc1 (configuration not stated)  Staphylococcus aureus                MBC          512

The recorded MBC for entry Cc1ccc(-n2cc(CN3C(=O)C4(C(C#N)=C(N)OC5=C4C(=O)CC(C)(C)C5)c4ccccc43)nn2)cc1 (configuration not stated) equals 256

The recorded MBC for entry Cc1ccc(-n2cc(CN3C(=O)C4(C(C#N)=C(N)OC5=C4C(=O)CCC5)c4ccccc43)nn2)cc1 (configuration not stated) equals 512

* * *

- Tested on: Bacillus subtilis
- Method summary: Bactericidal activity against Bacillus subtilis MTCC 121 after 24 hrs
- Assay type: functional
- Condition notes: MTCC 121, 24 h
Measured property: MBC
I'd appreciate it if you wrote the number followed by its unit.

> print(dat)
                                   compound  measured.property  assay.value
1  O=C(O)c1cn(C2CC2)c2cc(N3CCNCC3)c(F)cc2c1=O [CIPROFLOXACIN]                MBC   6.25 µg/mL

The recorded MBC for entry CC1(C)CC(=O)C2=C(C1)OC(N)=C(C#N)C21C(=O)N(Cc2cn(-c3ccccc3)nn2)c2ccccc21 (stereo unspecified) equals 256 µg/mL

The recorded MBC for entry CC1(C)CC(=O)C2=C(C1)OC(N)=C(C#N)C21C(=O)N(Cc2cn(-c3ccc(Br)cc3)nn2)c2ccccc21 (stereo unspecified) equals 64 µg/mL

The recorded MBC for entry Cc1ccc(-n2cc(CN3C(=O)C4(C(C#N)=C(N)OC5=C4C(=O)CCC5)c4ccccc43)nn2)cc1 (stereo unspecified) equals 128 µg/mL

The recorded MBC for entry Cc1ccc(-n2cc(CN3C(=O)C4(C(C#N)=C(N)OC5=C4C(=O)CC(C)(C)C5)c4ccccc43)nn2)cc1 (stereo unspecified) equals 256 µg/mL

The recorded MBC for entry COc1ccc(-n2cc(CN3C(=O)C4(C(C#N)=C(N)OC5=C4C(=O)CCC5)c4ccccc43)nn2)cc1 (stereo unspecified) equals 128 µg/mL

The recorded MBC for entry CC1(C)CC(=O)C2=C(C1)OC(N)=C(C#N)C21C(=O)N(Cc2cn(-c3cccc(Cl)c3)nn2)c2ccccc21 (stereo unspecified) equals 128 µg/mL

The recorded MBC for entry CC1(C)CC(=O)C2=C(C1)OC(N)=C(C#N)C21C(=O)N(Cc2cn(-c3ccc([N+](=O)[O-])cc3)nn2)c2ccccc21 (stereo unspecified) equals 256 µg/mL

The recorded MBC for entry Cn1c2c(c(=O)n(C)c1=O)C1(C(=O)N(Cc3cn(-c4ccc([N+](=O)[O-])cc4)nn3)c3ccccc31)C(C#N)=C(N)O2 (stereo unspecified) equals 128 µg/mL

The recorded MBC for entry CC1(C)CC(=O)C2=C(C1)OC(N)=C(C#N)C21C(=O)N(Cc2cn(-c3ccc(F)c(Cl)c3)nn2)c2ccccc21 (stereo unspecified) equals 128 µg/mL

The recorded MBC for entry COc1ccc(-n2cc(CN3C(=O)C4(C(C#N)=C(N)OC5=C4C(=O)CC(C)(C)C5)c4ccccc43)nn2)cc1 (stereo unspecified) equals 256 µg/mL

The recorded MBC for entry Cc1ccc(-n2cc(CN3C(=O)C4(C(C#N)=C(N)Oc5c4c(=O)n(C)c(=O)n5C)c4ccccc43)nn2)cc1 (stereo unspecified) equals 128 µg/mL

* * *

- System: Staphylococcus aureus
- Method summary: Antibacterial activity against Staphylococcus aureus MTCC 96 assessed as growth inhibition at 4 mg/mL after 24 hrs by agar well diffusion method
- Assay type: functional
- Condition notes: MTCC 96, 24 h, read-out: DIZ
Measured property: zone of inhibition at 4000 µg/mL (mm)
Report the value in mm with no unit label.

These recorded examples may help you get a feel for the data.
> print(dat)
                                   compound        measured.target                 measured.property  measurement.units  assay.value
1  CC1(C)CC(=O)C2=C(C1)OC(N)=C(C#N)C21C(=O)N(Cc2cn(-c3ccc([N+](=O)[O-])cc3)nn2)c2ccccc21 (stereo unspecified)  Staphylococcus aureus  zone of inhibition at 4000 µg/mL                 mm         16.6
2  CC1(C)CC(=O)C2=C(C1)OC(N)=C(C#N)C21C(=O)N(Cc2cn(-c3ccc(F)c(Cl)c3)nn2)c2ccccc21 (stereo unspecified)  Staphylococcus aureus  zone of inhibition at 4000 µg/mL                 mm         19.6
3  Cn1c2c(c(=O)n(C)c1=O)C1(C(=O)N(Cc3cn(-c4ccc([N+](=O)[O-])cc4)nn3)c3ccccc31)C(C#N)=C(N)O2 (stereo unspecified)  Staphylococcus aureus  zone of inhibition at 4000 µg/mL                 mm         15.3

Let's switch to this compound now.
The recorded zone of inhibition at 4000 µg/mL for entry Cc1ccc(-n2cc(CN3C(=O)C4(C(C#N)=C(N)OC5=C4C(=O)CC(C)(C)C5)c4ccccc43)nn2)cc1 (stereo unspecified) equals 14.3

* * *

- Tested on: Saccharomyces cerevisiae
- Method summary: Antifungal activity against Saccharomyces cerevisiae MTCC 170 assessed as growth inhibition by macrodilution tube method
- Type: functional
Documented MIC across a set of compounds
Report the value in µg/mL with no unit label.

These recorded examples may help you get a feel for the data.
Compound	Assay value
Cc1ccc(-n2cc(CN3C(=O)C4(C(C#N)=C(N)Oc5c4c(=O)n(C)c(=O)n5C)c4ccccc43)nn2)cc1 (stereo unspecified)	256
COc1ccc(-n2cc(CN3C(=O)C4(C(C#N)=C(N)Oc5c4c(=O)n(C)c(=O)n5C)c4ccccc43)nn2)cc1 (stereo unspecified)	64
COc1ccc(-n2cc(CN3C(=O)C4(C(C#N)=C(N)OC5=C4C(=O)CCC5)c4ccccc43)nn2)cc1 (stereo unspecified)	64

Record CC1(C)CC(=O)C2=C(C1)OC(N)=C(C#N)C21C(=O)N(Cc2cn(-c3cccc(Cl)c3)nn2)c2ccccc21 (stereo unspecified) has Saccharomyces cerevisiae MIC equal to 256

Record C[C@@H]1[C@H](O)[C@@H](C)/C=C/C=C/C=C/C=C/C=C/C=C/C=C/[C@H](O[C@@H]2O[C@H](C)[C@@H](O)[C@H](N)[C@@H]2O)C[C@@H]2O[C@](O)(C[C@@H](O)C[C@@H](O)[C@H](O)CC[C@@H](O)C[C@@H](O)CC(=O)O[C@H]1C)C[C@H](O)[C@H]2C(=O)O [AMPHOTERICIN B] has Saccharomyces cerevisiae MIC equal to 100

Record Cc1ccc(-n2cc(CN3C(=O)C4(C(C#N)=C(N)OC5=C4C(=O)CCC5)c4ccccc43)nn2)cc1 (stereo unspecified) has Saccharomyces cerevisiae MIC equal to 128

* * *

- Tested on: Saccharomyces cerevisiae
- Method summary: Antifungal activity against Saccharomyces cerevisiae MTCC 170 assessed as growth inhibition by macrodilution tube method
- Assay type: functional
Documented MIC across a set of compounds
Report the value in µg/mL with no unit label.

These recorded examples may help you get a feel for the data.
> print(dat)
                                   compound  measured.property  assay.value
1  CC1(C)CC(=O)C2=C(C1)OC(N)=C(C#N)C21C(=O)N(Cc2cn(-c3ccc([N+](=O)[O-])cc3)nn2)c2ccccc21 (stereo not given)                MIC          256
2  CC1(C)CC(=O)C2=C(C1)OC(N)=C(C#N)C21C(=O)N(Cc2cn(-c3ccc(F)c(Cl)c3)nn2)c2ccccc21 (stereo not given)                MIC          256
3  CC1(C)CC(=O)C2=C(C1)OC(N)=C(C#N)C21C(=O)N(Cc2cn(-c3ccccc3)nn2)c2ccccc21 (stereo not given)                MIC          256
4  Cn1c2c(c(=O)n(C)c1=O)C1(C(=O)N(Cc3cn(-c4ccc(Br)cc4)nn3)c3ccccc31)C(C#N)=C(N)O2 (stereo not given)                MIC          128
5  N#CC1=C(N)OC2=C(C(=O)CCC2)C12C(=O)N(Cc1cn(-c3ccc([N+](=O)[O-])cc3)nn1)c1ccccc12 (stereo not given)                MIC          256

Record Cc1ccc(-n2cc(CN3C(=O)C4(C(C#N)=C(N)OC5=C4C(=O)CC(C)(C)C5)c4ccccc43)nn2)cc1 (stereo not given) has Saccharomyces cerevisiae MIC equal to 256

Record Cn1c2c(c(=O)n(C)c1=O)C1(C(=O)N(Cc3cn(-c4ccc([N+](=O)[O-])cc4)nn3)c3ccccc31)C(C#N)=C(N)O2 (stereo not given) has Saccharomyces cerevisiae MIC equal to 512

Record COc1ccc(-n2cc(CN3C(=O)C4(C(C#N)=C(N)OC5=C4C(=O)CC(C)(C)C5)c4ccccc43)nn2)cc1 (stereo not given) has Saccharomyces cerevisiae MIC equal to 64

Record CC1(C)CC(=O)C2=C(C1)OC(N)=C(C#N)C21C(=O)N(Cc2cn(-c3ccc(Br)cc3)nn2)c2ccccc21 (stereo not given) has Saccharomyces cerevisiae MIC equal to 128

Record N#CC1=C(N)OC2=C(C(=O)CCC2)C12C(=O)N(Cc1cn(-c3ccc(Br)cc3)nn1)c1ccccc12 (stereo not given) has Saccharomyces cerevisiae MIC equal to 256
